Reported pIC50 values for a set of molecules
target: Pandemic 2009 H1N1 influenza A endonuclease (PAN domain, residues 1-204) (Influenza A virus (strain swl A/California/04/2009 H1N1)); assay: Endonuclease assay (FAM/MGBNFQ fluorescent probe cleavage by PAN); details: endonuclease inhibition; 25 nM endonuclease, 50 nM probe, 37 degrees Celsius, fluorescence change over time
pIC50: −log10 of the molar value.

[
  {
    "molecule": "O=c1[nH]c2cc(-c3ccc(F)cc3)ccc2c(Br)c1O [Example 12]",
    "value modifier": "=",
    "pIC50": 5.96
  },
  {
    "molecule": "Cc1c(O)c(=O)[nH]c2ccccc12 [Example 14, 4-Methyl-3-hydroxyquinolin-2(1H)— one]",
    "value modifier": "<",
    "pIC50": 4.00
  },
  {
    "molecule": "O=c1[nH]c2cc(-c3ccc(F)cc3)ccc2cc1O [Example 10]",
    "value modifier": "=",
    "pIC50": 6.25
  },
  {
    "molecule": "O=c1[nH]c2c(Br)cccc2cc1O [Example 6, 8-bromo-3-hydroxyquinolin-2(1H)-one]",
    "value modifier": "=",
    "pIC50": 4.97
  },
  {
    "molecule": "O=c1[nH]c2ccccc2c(-c2ccc(F)cc2)c1O [Example 7]",
    "value modifier": "=",
    "pIC50": 4.97
  },
  {
    "molecule": "O=c1[nH]c2ccc(-c3ccc(F)cc3)cc2cc1O [Example 9]",
    "value modifier": "=",
    "pIC50": 6.25
  },
  {
    "molecule": "O=c1[nH]c2c(-c3ccc(F)cc3)cccc2cc1O [Example 11]",
    "value modifier": "=",
    "pIC50": 5.33
  }
]

====

target: Pandemic 2009 H1N1 influenza A endonuclease (PAN domain, residues 1-204) (Influenza A virus (strain swl A/California/04/2009 H1N1)); experiment: Endonuclease assay (FAM/MGBNFQ fluorescent probe cleavage by PAN); conditions: endonuclease inhibition; 25 nM endonuclease, 50 nM probe, 37 degrees Celsius, fluorescence change over time
Reported IC50 values for a set of compounds
measure name: IC50 (µM)

[
  {
    "compound": "Cc1c(O)c(=O)[nH]c2cc(-c3ccc(F)cc3)ccc12",
    "value modifier": "=",
    "measured number": 13.2
  },
  {
    "compound": "O=c1[nH]c2cc(-c3ccc(F)cc3)ccc2c(-c2ccccc2)c1O",
    "value modifier": "=",
    "measured number": 2
  },
  {
    "compound": "O=c1[nH]c2ccc(Br)cc2cc1O [Example 4, 6-bromo-3-hydroxyquinolin-2(1H)-one]",
    "value modifier": "=",
    "measured number": 7.4
  },
  {
    "compound": "O=c1[nH]c2cccc(-c3ccc(F)cc3)c2cc1O",
    "value modifier": "=",
    "measured number": 3.3
  },
  {
    "compound": "O=c1[nH]c2cccc(Br)c2cc1O [Example 3, 5-bromo-3-hydroxyquinolin-2(1H)-one]",
    "value modifier": "=",
    "measured number": 12.2
  },
  {
    "compound": "O=c1[nH]c2ccccc2c(Br)c1O [Example 2, 4-bromo-3-hydroxyquinolin-2(1H)-one]",
    "value modifier": "=",
    "measured number": 53
  },
  {
    "compound": "O=c1[nH]c2cc(Br)ccc2cc1O [Example 5, 7-bromo-3-hydroxyquinolin-2(1H)-one]",
    "value modifier": "=",
    "measured number": 7.6
  },
  {
    "compound": "O=c1[nH]c2ccccc2c(-c2ccccc2)c1O [Example 13, 4-Phenyl-3-hydroxyquinolin-2(1H)-one]",
    "value modifier": ">",
    "measured number": 20
  }
]

Where do the numbers come from? From patent US9701638B2.
